- Tested on: Triticum aestivum (TRZAW, winter wheat)
- Method notes: Test 1 glasshouse assay, post-emergence herbicidal activity
- Type: in vivo
- Condition parameters: 312 h, post-emergence (Example 1B Table 2), 62.5 g/ha, after 13 days, crop plant, read-out: Percentage phytotoxicity TRZAW
Measurement label: plant injury at 62.5 g/ha

>>> print(df.to_string())
                                    molecule  endpoint_value
 0  C#CCC1CC(=O)C(c2c(C)cc(-c3ccc(Cl)cn3)cc2C)C1=O (stereo not shown) [Compound A2]             70%
 1  CC#CCC1CC(=O)C(c2c(C)cc(C)cc2C)C1=O (stereo not shown) [Compound A24]              0%
 2  C#CCC1CC(=O)C(c2c(Cl)cc(-c3ccc(F)c(F)c3)cc2OC)C1=O (stereo not shown) [Compound A13]             80%
 3  C#CCC1CC(=O)C(c2c(CC)cc(C)cc2CC)C1=O (stereo not shown) [Compound A25]             30%
 4  C#CCC1CC(=O)C(c2c(F)cc(-c3ccc(Cl)cn3)cc2Cl)C1=O (stereo not shown) [Compound A8]             80%
 5  C#CCC1CC(=O)C(c2c(Cl)cc(-c3ccc(Cl)cn3)cc2OC)C1=O (stereo not shown) [Compound A10]             90%
 6  C#CCC1CC(=O)C(c2c(C)cc(C)cc2C)C1=O (stereo not shown) [Compound A23]             50%
 7  C#CCC1CC(=O)C(c2c(Cl)cc(-c3ccc(F)cc3F)cc2OC)C1=O (stereo not shown) [Compound A12]             70%
 8  C#CCC1CC(=O)C(c2c(C)cc(-c3ncc(Cl)cc3F)cc2C)C1=O (stereo not shown) [Compound A3]             90%
 9  C#CCC1CC(=O)C(c2c(Cl)cccc2Cl)C1=O (stereo not shown) [Compound A29]             60%
10  C#CCC1CC(=O)C(c2c(C)cc(C#C)cc2C)C1=O (stereo not shown) [Compound A27]             80%
11  C#Cc1cc(C)c(C2C(=O)CC(CC#CC)C2=O)c(C)c1 (stereo not shown) [Compound A28]             30%
12  C#CCC1CC(=O)C(c2c(C)cc(-c3ncc(Cl)cn3)cc2C)C1=O (stereo not shown) [Compound A5]             80%

---

- Tested on: Brachiaria plantaginea (BRAPL)
- Method notes: Test 2 glasshouse assay (IF50 formulation, X-77), pre-emergence herbicidal activity
- Format: in vivo
- Condition parameters: Urochloa plantaginea, 480 h, 250 g/ha, 20DAA, read-out: Percentage phytotoxicity BRAPL
Overview of recorded pest or weed control at 250 g/ha for various molecules
Measurement label: pest or weed control at 250 g/ha (%)

                                   molecule                 measurement_label  unit_string  endpoint_value
0  C#CCC1CC(=O)C(c2c(Cl)cc(-c3ccc(F)cc3)cc2OC)C1=O (stereo not drawn)  pest or weed control at 250 g/ha            %              90
1  C#CCC1CC(=O)C(c2c(Cl)cc(-c3ccc(F)cc3F)cc2OC)C1=O (stereo not drawn)  pest or weed control at 250 g/ha            %             100
2  C#CCC1CC(=O)C(c2c(Cl)cc(-c3ccc(F)c(F)c3)cc2OC)C1=O (stereo not drawn)  pest or weed control at 250 g/ha            %             100
3  C#CCC1CC(=O)C(c2c(C)cc(-c3ncc(Cl)cc3F)cc2C)C1=O (stereo not drawn)  pest or weed control at 250 g/ha            %              90
4  C#CCC1CC(=O)C(c2c(F)cc(-c3ccc(Cl)cc3)cc2OC)C1=O (stereo not drawn)  pest or weed control at 250 g/ha            %             100
5  C#CCC1CC(=O)C(c2c(CC)cc(C)cc2CC)C1=O (stereo not drawn)  pest or weed control at 250 g/ha            %             100
6  C#CCC1CC(=O)C(c2c(F)cc(-c3ccc(F)c(F)c3)cc2OC)C1=O (stereo not drawn)  pest or weed control at 250 g/ha            %              90
7  C#CCC1CC(=O)C(c2c(Cl)cc(-c3ccc(Cl)cc3)cc2OC)C1=O (stereo not drawn)  pest or weed control at 250 g/ha            %             100
8  C#CCC1CC(=O)C(c2c(C)cc(-c3ccc(Cl)cn3)cc2C)C1=O (stereo not drawn)  pest or weed control at 250 g/ha            %              80

---

Overview of recorded pest or weed control at 30 g/ha for various compounds
- System: Setaria faberi (SETFA)
- Method notes: Test 1 glasshouse assay, post-emergence herbicidal activity
- Type: in vivo
- Condition parameters: 312 h, post-emergence (Example 1B Table 1), 30 g/ha, after 13 days, read-out: Percentage phytotoxicity SETFA
Measurement label: pest or weed control at 30 g/ha (%)

>>> print(df.to_string())
                                   compound  endpoint_value
0  C#CCC1CC(=O)C(c2c(F)cc(-c3ccc(Cl)cn3)cc2Cl)C1=O (centres unmarked) [Compound A8]             100
1  C#CCC1CC(=O)C(c2c(Cl)cc(-c3ccc(F)cc3)cc2OC)C1=O (centres unmarked) [Compound A7]             100
2  C#CCC1CC(=O)C(c2cc(-c3ncc(Cl)cn3)ccc2C)C1=O (centres unmarked) [Compound A19]              70
3  C#CCC1CC(=O)C(c2c(F)cc(-c3ccc(F)cc3)cc2Cl)C1=O (centres unmarked) [Compound A4]             100
4  C#CCC1CC(=O)C(c2c(Cl)cc(-c3ccc(F)c(F)c3)cc2OC)C1=O (centres unmarked) [Compound A13]             100

---

- Test system: Alopecurus myosuroides (ALOMY)
- Method notes: Test 2 glasshouse assay (IF50 formulation, X-77), post-emergence herbicidal activity
- Format: in vivo
- Condition parameters: 360 h, application rate 250 g/ha, 15 DAA, visual score, read-out: Post-emergence herbicidal activity (percentage phytotoxicity) ALOMY
- Procedure: Seeds of a variety of monocotyledonous and dicotyledonous test plants are sown in standard soil in pots. The plants are cultivated for one day (for pre-emergence) or for about 12 days (for post-emergence) under controlled conditions in a glasshouse (warm climate species at 24/18° C., cool climate species at 20/16° C., both at day/night; 16 hours light; 65% humidity). […]
Overview of recorded pest or weed control at 250 g/ha for various compounds
Measurement label: pest or weed control at 250 g/ha (%)

In [3]: df
Out[3]:
                                   compound  unit_string  endpoint_value
0  C#CCC1CC(=O)C(c2c(F)cc(-c3ccc(Cl)cn3)cc2Cl)C1=O (centres unmarked) [Compound A8]            %              80
1  C#CCC1CC(=O)C(c2c(C)cc(-c3ncc(Cl)cc3F)cc2C)C1=O (centres unmarked) [Compound A3]            %             100
2  C#CCC1CC(=O)C(c2cc(-c3ncc(Cl)cc3F)ccc2C)C1=O (centres unmarked) [Compound A18]            %              30
3  C#CCC1CC(=O)C(c2c(F)cc(-c3ccc(Cl)cc3)cc2Cl)C1=O (centres unmarked) [Compound A6]            %             100
4  C#CCC1CC(=O)C(c2c(Cl)cc(-c3ccc(Cl)cn3)cc2OC)C1=O (centres unmarked) [Compound A10]            %             100

---

- Tested on: Alopecurus myosuroides (ALOMY)
- Method notes: Test 1 glasshouse assay, post-emergence herbicidal activity
- Assay type: in vivo
- Condition parameters: 312 h, post-emergence (Example 1B Table 1), 30 g/ha, after 13 days, read-out: Percentage phytotoxicity ALOMY
Measurement label: pest or weed control at 30 g/ha

                                    compound  endpoint_value
 0  C#CCC1CC(=O)C(c2c(F)cc(-c3ccc(Cl)cc3)cc2Cl)C1=O (centres unmarked)             80%
 1  C#CCC1CC(=O)C(c2c(Cl)cc(-c3ccc(Cl)cn3)cc2OC)C1=O (centres unmarked)             90%
 2  C#CCC1CC(=O)C(c2c(F)cc(-c3ccc(F)cc3)cc2Cl)C1=O (centres unmarked)             70%
 3  C#CCC1CC(=O)C(c2c(F)cc(-c3ccc(F)c(F)c3)cc2OC)C1=O (centres unmarked)             70%
 4  C#CCC1CC(=O)C(c2c(Cl)cc(-c3ccc(Cl)cc3)cc2OC)C1=O (centres unmarked)             70%
 5  C#CCC1CC(=O)C(c2cc(-c3ncc(Cl)cc3F)ccc2C)C1=O (centres unmarked)             10%
 6  C#CCC1CC(=O)C(c2c(F)cc(-c3ccc(F)cc3)cc2OC)C1=O (centres unmarked)             50%
 7  C#CCC1CC(=O)C(c2cc(-c3ncc(Cl)cn3)ccc2C)C1=O (centres unmarked)             10%
 8  C#CCC1CC(=O)C(c2cc(-c3ccc(Cl)cc3)ccc2C)C1=O (centres unmarked)             70%
 9  C#CCC1CC(=O)C(c2c(F)cc(-c3ccc(Cl)cn3)cc2Cl)C1=O (centres unmarked)            100%
10  C#CCC1CC(=O)C(c2c(F)cc(-c3ccc(F)cc3F)cc2OC)C1=O (centres unmarked)             40%
11  C#CCC1CC(=O)C(c2c(Cl)cc(-c3ccc(F)c(F)c3)cc2OC)C1=O (centres unmarked)             90%
12  C#CCC1CC(=O)C(c2c(Cl)cc(-c3ccc(F)cc3)cc2OC)C1=O (centres unmarked)             70%
13  C#CCC1CC(=O)C(c2c(Cl)cc(-c3ccc(F)cc3F)cc2OC)C1=O (centres unmarked)             80%
